Molecular target: T1, sIL-6R (soluble IL-6 receptor; SBH Sciences) (human, UniProt P08887 20-365)
T1 construct: also called human IL-6R
T1 sequence: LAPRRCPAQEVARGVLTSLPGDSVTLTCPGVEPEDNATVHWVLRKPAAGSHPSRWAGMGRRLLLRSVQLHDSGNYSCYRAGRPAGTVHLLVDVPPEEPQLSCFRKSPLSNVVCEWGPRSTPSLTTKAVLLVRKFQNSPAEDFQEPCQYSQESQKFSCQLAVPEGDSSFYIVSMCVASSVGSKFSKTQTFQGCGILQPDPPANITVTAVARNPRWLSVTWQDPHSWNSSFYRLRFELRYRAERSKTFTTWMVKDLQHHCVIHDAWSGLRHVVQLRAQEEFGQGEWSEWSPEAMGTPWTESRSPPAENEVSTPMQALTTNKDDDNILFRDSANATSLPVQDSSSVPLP
Assay: SPR (BIAcore 3000), antibody on chip, sIL-6R analyte, 25 C
Procedure: All SPR measurements were performed on a BIAcore 3000 instrument (GE Biosciences, Piscataway, N.J.). BIAcore Software-BIAcore 3000 Control Software V3.2 was used for the operation and control of the BIAcore 3000 instrument. […] Data was analyzed by using the Kinetics Wizard and the manual fitting programs that are both included with the BiaEvaluation Software V4.1.
Please go through the items and note down their pKd.
// pKd: -log10(molar conc.)

What measured pKd goes with 27# (antibody, human IgG1, kappa, V domains shown, also called Sample # 27) VH: QVQLQESGPGLVRPSQTLSLTCTVSGYSITSDHAWSWVRQPPGRGLEWIGFISYSGMTTYNPSLKSRVTMLRDTSKNQFSLRLSSVTAADTAVYYCARSLARATAMDYWGQGSLVTVSS VL: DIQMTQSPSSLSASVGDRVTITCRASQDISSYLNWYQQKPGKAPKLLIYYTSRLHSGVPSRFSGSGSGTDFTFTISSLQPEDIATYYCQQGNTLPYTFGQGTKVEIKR ?
9.90

State the recorded pKd for this entry: 12# (antibody, human IgG1, kappa, V domains shown, also called Sample # 12) VH: QVQLQESGPGLVRPSQTLSLTCTVSGYSITSDHAWSWVRQPPGRGLEWIGFISYSGITTYNPSLKSRVTMLRDTSKNQFSLRLSSVTAADTAVYYCARCLARATAMDYWGQGSLVTVSS VL: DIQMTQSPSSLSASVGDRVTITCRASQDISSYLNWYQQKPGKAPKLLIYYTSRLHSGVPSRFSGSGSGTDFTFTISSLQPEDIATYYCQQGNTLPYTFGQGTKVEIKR
9.38

State the recorded pKd for this entry: 35# (antibody, human IgG1, kappa, V domains shown, also called Sample # 35) VH: QVQLQESGPGLVRPSQTLSLTCTVSGYSITSDHAWSWVRQPPGRGLEWIGYISYSGITTYNPSLKSRVTMLRDTSKNQFSLRLSSVTAADTAVYYCARSLARMTAMDYWGQGSLVTVSS VL: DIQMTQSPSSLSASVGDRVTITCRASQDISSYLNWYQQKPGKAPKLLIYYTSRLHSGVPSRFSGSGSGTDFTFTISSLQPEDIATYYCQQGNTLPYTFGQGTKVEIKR
9.19

I'd like to know its pKd. The binder in question is 14# (antibody, human IgG1, kappa, V domains shown, also called Sample # 14) VH: QVQLQESGPGLVRPSQTLSLTCTVSGYSITSDHAWSWVRQPPGRGLEWIGFISYSGITTYNPSLKSRVTMLRDTSKNQFSLRLSSVTAADTAVYYCARSLARITAMDYWGQGSLVTVSS VL: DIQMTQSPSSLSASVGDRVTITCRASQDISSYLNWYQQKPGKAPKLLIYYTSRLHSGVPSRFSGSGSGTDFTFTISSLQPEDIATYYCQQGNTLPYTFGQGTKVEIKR
9.58
